Reference for the values: patent US9555038B2

System: HCV replicon 1B
Assay: Cell-based HCV Replicon Assay B, replicon 1B
Settings: Hepatitis C virus
pIC50: −log10 of the molar value.
# pIC50 annotations

COMPOUND	pIC50
COC(=O)N[C@H](C(=O)N1CCC[C@H]1c1ncc(-c2cc(F)c3c(c2)OC(c2cnc(C4(C)CCOCC4)s2)n2c-3cc3cc(-c4cnc([C@@H]5CCCN5C(=O)[C@@H](NC(=O)OC)C(C)C)[nH]4)ccc32)[nH]1)C(C)C (mixture of isomers)	11.57
CCc1ncc(C2Oc3cc(-c4cnc([C@@H]5CCCN5C(=O)[C@@H](NC(=O)OC)C(C)C)[nH]4)cc(F)c3-c3cc4cc(-c5cnc([C@@H]6C[C@H]7C[C@H]7N6C(=O)[C@@H](NC(=O)OC)C6C[C@@H](C)O[C@@H](C)C6)[nH]5)ccc4n32)s1 (single isomer, unassigned)	11.52
COC(=O)NC(C(=O)N1[C@@H]2C[C@@H]2C[C@H]1c1ncc(-c2ccc3c(c2)cc2n3C(c3cnc(C4CC4)s3)Oc3cc(-c4cnc([C@@H]5CCCN5C(=O)[C@@H](NC(=O)OC)C(C)C)[nH]4)cc(F)c3-2)[nH]1)C1CCOC(C)(C)C1 (single isomer, unassigned)	10.35
COC(=O)NC(C(=O)N1CCC[C@H]1c1ncc(-c2ccc3c(c2)cc2n3C(c3cnc(CC(C)(C)C)s3)Oc3cc(-c4cnc([C@@H]5CCCN5C(=O)[C@@H](NC(=O)OC)C(C)C)[nH]4)cc(F)c3-2)[nH]1)C1CCOC(C)(C)C1 (some centres unmarked)	11.51
COC(=O)N[C@H](C(=O)N1CCC[C@H]1c1ncc(-c2cc(C)c3c(c2)OC(c2ncc(C4CC4)s2)n2c-3cc3cc(-c4cnc([C@@H]5CCCN5C(=O)[C@@H](NC(=O)OC)C5C[C@@H](C)O[C@@H](C)C5)[nH]4)ccc32)[nH]1)C(C)C (single isomer, unassigned)	11.52
COC(=O)NC(C(=O)N1[C@@H]2C[C@@H]2C[C@H]1c1ncc(-c2ccc3c(c2)cc2n3C(c3cnc(C4(C)CC4)s3)Oc3cc(-c4cnc([C@@H]5CCCN5C(=O)[C@@H](NC(=O)OC)C(C)C)[nH]4)cc(F)c3-2)[nH]1)C1CCOC(C)(C)C1 (single isomer, unassigned)	11.41
COC(=O)NC(C(=O)N1CCC[C@H]1c1ncc(-c2ccc3c(c2)cc2n3C(c3cnc(C4CC4)s3)Oc3cc(-c4cnc([C@@H]5CCCN5C(=O)[C@@H](NC(=O)OC)C(C)C)[nH]4)cc(F)c3-2)[nH]1)C1C[C@@H](C)O[C@H](C)C1 (single isomer, unassigned)	11.52
COC(=O)N[C@H](C(=O)N1CCC[C@H]1c1ncc(-c2cc(F)c3c(c2)OC(c2cnc(C4(C)CC4)s2)n2c-3cc3cc(-c4cnc([C@@H]5C[C@H]6C[C@H]6N5C(=O)[C@@H](NC(=O)OC)C(C)C)[nH]4)ccc32)[nH]1)C(C)C (single isomer, unassigned)	11.60
COC(=O)NC(C(=O)N1CCC[C@H]1c1ncc(-c2ccc3c(c2)cc2n3C(c3cnc(C4(C)CCCC4)s3)Oc3cc(-c4cnc([C@@H]5CCCN5C(=O)[C@@H](NC(=O)OC)C(C)C)[nH]4)cc(F)c3-2)[nH]1)C1C[C@@H](C)O[C@@H](C)C1 (single isomer, unassigned)	11.47
COC(=O)NC(C(=O)N1CCC[C@H]1c1ncc(-c2ccc3c(c2)cc2n3C(c3cnc(CC(C)C)s3)Oc3cc(-c4cnc([C@@H]5CCCN5C(=O)[C@@H](NC(=O)OC)C(C)C)[nH]4)cc(F)c3-2)[nH]1)C1C[C@@H](C)O[C@@H](C)C1 (single isomer, unassigned)	11.74
CCCc1ncc(C2Oc3cc(-c4cnc([C@@H]5CCCN5C(=O)[C@@H](NC(=O)OC)C(C)C)[nH]4)cc(F)c3-c3cc4cc(-c5cnc([C@@H]6C[C@H]7C[C@H]7N6C(=O)C(NC(=O)OC)C6C[C@@H](C)O[C@@H](C)C6)[nH]5)ccc4n32)s1 (single isomer, unassigned)	11.40
COC(=O)NC(C(=O)N1[C@@H]2C[C@@H]2C[C@H]1c1ncc(-c2ccc3c(c2)cc2n3C(c3cnc(C4CC4)s3)Oc3cc(-c4cnc([C@@H]5CC6CC6N5C(=O)[C@@H](NC(=O)OC)C(C)C)[nH]4)cc(F)c3-2)[nH]1)C1CCOC(C)(C)C1 (single isomer, unassigned)	11.40
COC(=O)NC(C(=O)N1CCC[C@H]1c1ncc(-c2ccc3c(c2)cc2n3C(c3cnc(C4CC4)s3)Oc3cc(-c4cnc([C@@H]5CCCN5C(=O)[C@@H](NC(=O)OC)C(C)C)[nH]4)cc(F)c3-2)[nH]1)C1CCOC(C)(C)C1 (single isomer, unassigned)	11.52
COC(=O)N[C@H](C(=O)N1CCC[C@H]1c1ncc(-c2cc(C)c3c(c2)OC(c2cnc(C4CCC4)s2)n2c-3cc3cc(-c4cnc([C@@H]5CCCN5C(=O)[C@@H](NC(=O)OC)C(C)C)[nH]4)ccc32)[nH]1)C(C)C (single isomer, unassigned)	11.70
